// provenance: PubChem BioAssay (NCI)

system: SNB-75 CNS; assay: NCI tumour cell line growth inhibition, 48 h
Where a SMILES comes first, the peptide text is derived from it.

- compound: "O=C(O)C[O][Sb][O]CC(=O)O"
  TGI: "> 100 µM"
- compound: "COc1cc2c(cc1OC)C1CCc3ccccc3CN1CC2 (stereo not given)"
  TGI: "> 100 µM"
- compound: "COc1ccc(C2CC(c3ccc4ccccc4c3O)=NN2C(C)=O)cc1OC (stereo not given)"
  TGI: "> 100 µM"
- compound: "NC(=O)Nc1cc(O)ccc1N=Nc1ccc(S(=O)(=O)Nc2ccccn2)cc1"
  TGI: "> 100 µM"
- compound: "CN(C)c1nc(=NCc2cccs2)ss1"
  TGI: "> 10 µM"
- compound: "O=C1c2cc3c(cc2[C@@H]2[C@H]1c1ccc([N+](=O)[O-])cc1C(=O)N2CCCCl)OCO3"
  TGI: "> 100 µM"
- compound: "Cc1ccccc1NC(=O)C1C(=O)N(c2ccccc2C)C(=O)/C1=N\\N (stereo not given)"
  TGI: "> 100 µM"
- compound: "CN1CCCC1=NC#N"
  TGI: "> 100 µM"
- compound: "COc1ccc(C2CC(=O)CC(c3ccc(OC)cc3)C23C(=O)NC(=S)NC3=O)cc1 (stereo not given)"
  TGI: "> 100 µM"
- compound: "COC(=O)n1c(=O)n(-c2ccccc2)c(=O)n1C(=O)Nc1ccccc1"
  TGI: "> 100 µM"
- compound: "COc1ccc2c(c1)sc1nc(-c3ccccc3)c(-c3ccc(O)c(OC)c3)n12"
  TGI: "> 100 µM"
- compound: "Nc1ccc2c(c1)CC1c3ccccc3C(C2)c2ccccc21"
  TGI: "> 100 µM"
- compound: "CC1=CC2=C(C(N)=O)C(=O)OC2(C)C(c2ccccc2)C1 (stereo not given)"
  TGI: "> 100 µM"
- compound: "CCN(CC)CCOC(=O)CCN1CC2CCC(CC2)C1"
  TGI: "> 100 µM"
- compound: "C[C@]12CCC3c4ccc(O)cc4CCC3C1Cc1ccc(O)cc12 (stereo not given in full)"
  TGI: "31.2 µM"
- compound: "O=C(Cc1ccccc1)NNc1nc(NNC(=O)c2ccncc2)nc(Nc2ccccc2)n1"
  TGI: "> 10 µM"
- compound: "CCOC(=O)[C@H]1Nc2ccc(Cl)cc2[C@H]2OCC[C@@H]12"
  TGI: "> 100 µM"
- compound: "CC(=O)NC(CS)C(=O)NC(CO)C(=O)NC(CO)C(=O)NC(Cc1c[nH]c2ccccc12)C(=O)N1CCCC1C(=O)NC(CO)C(=O)NC(Cc1c[nH]c2ccccc12)C(=O)NC(Cc1c[nH]cn1)C(=O)NC(CO)C(=O)NC(Cc1c[nH]c2ccccc12)C(=O)NCC(=O)NCC(=O)NC(CC(=O)O)C(=O)NC(CCC(N)=O)C(=O)NC(CCCCN)C(=O)NC(Cc1ccccc1)C(=O)NC(CCCNC(=N)N)C(=O)NC(CCCCN)C(N)=O (stereo not given) (Ac-CSSWPSWHSWGGDQKFRK-NH2; configuration not given here)"
  TGI: "> 25 µM"
- compound: "N#Cc1c(C#N)c(-c2ccco2)n(-c2ccccc2)c1N"
  TGI: "84.4 µM"
- compound: "N#Cc1c(N)c2c(c(-c3ccccc3)c1-c1ccccc1)C(=O)N(NC(=O)c1ccccc1)C2=O"
  TGI: "> 100 µM"
- compound: "Nc1ccc2cc3[nH]c4cc(N)ccc4c3nc2c1"
  TGI: "1.33 µM"
- compound: "COc1ccc2nc(NC(=O)C(=O)C(C(=O)c3ccccc3-c3ccccc3)C3OC(=O)c4ccccc43)sc2c1 (stereo not given)"
  TGI: "35.1 µM"
- compound: "CCCN(CCC)c1cc2c(cc1F)c(=O)c(C(=O)O)cn2-c1ccc(N2CCN(C)CC2)cn1"
  TGI: "28.3 µM"
- compound: "COc1c(NC(=O)CC(C)=O)[c]([Hg][O]C(C)=O)c(OC)c(Cl)[c]1[Hg][O]C(C)=O"
  TGI: "29.5 µM"
- compound: "ICCC(c1ccccc1)(c1ccccc1)c1ccccc1"
  TGI: "13 µM"
